# Tested on: P. falciparum NF54 (CQ sensitive)
# Procedure summary: In vitro P. falciparum asexual blood stage, [3H]-hypoxanthine, NF54
# Assay type: cell-based, Plasmodium falciparum
# Run parameters: Plasmodium falciparum, NF54, Erythrocyte; in vitro, infected human red blood cells; read-out: Antimalarial activity (IC50) P. falciparum NF54 (CQ sensitive)
Assay metric: pIC50
Field pIC50 (float): negative decimal logarithm of the concentration in molar.

Enquiry: Please supply the value of reported pIC50 for the item `COc1ccc2nc3cc(Cl)ccc3c(NCCCCN3CCN(C)CC3)c2c1`
Return: 8.40
